Consider the following compounds and their measured pKi readings.
experimental_target: D(4) dopamine receptor (Homo sapiens, UniProt P21917)
Sequence (P21917 whole entry): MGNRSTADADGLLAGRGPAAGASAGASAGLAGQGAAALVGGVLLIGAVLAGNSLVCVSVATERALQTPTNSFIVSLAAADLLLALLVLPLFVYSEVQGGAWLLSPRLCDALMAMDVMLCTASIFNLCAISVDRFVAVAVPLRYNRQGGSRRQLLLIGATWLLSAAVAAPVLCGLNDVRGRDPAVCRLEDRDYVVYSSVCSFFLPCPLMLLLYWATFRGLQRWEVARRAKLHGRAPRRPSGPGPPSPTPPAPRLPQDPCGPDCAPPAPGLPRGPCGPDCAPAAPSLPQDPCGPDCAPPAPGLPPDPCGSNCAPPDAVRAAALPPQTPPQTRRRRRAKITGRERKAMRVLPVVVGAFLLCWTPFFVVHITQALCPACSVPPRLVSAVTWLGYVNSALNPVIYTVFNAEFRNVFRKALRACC
pKi: −log10 of the molar value.
measured_property: pKi

[[record]]
smiles_repr = "O=c1[nH]c2ccc3c(c2[nH]1)O[C@H](CNCc1ccccc1)CC3"
data_value = 6.50

[[record]]
smiles_repr = "c1ccc(CNC[C@H]2CCc3ccc4[nH]ccc4c3O2)cc1"
data_value = 5.66

[[record]]
smiles_repr = "O=C1Cc2c(ccc3c2O[C@@H](CNCc2ccccc2)CC3)N1"
data_value = 6.44

